Reported pIC50 by item:
- target: MAb 1219S59.11
- protocolSummary: inhibition enzyme immunoassay: inhibition of MAb binding to surface bound R-(-)-oxaprotiline-mucin conjugate
- recordedConditions: MAb 1219S59.11; read-out: IC₅₀
As a rule, pIC50 stands for the negative log10 of the concentration, concentration in M.

What does the record list as pIC50 for CNCC(CC12CCC(c3ccccc31)c1ccccc12)OC(C)=O (stereo not drawn) [compound 11] ? 8.89

Queued: CN(C)CC(O)CC12CCC(c3ccccc31)c1ccc(Cl)cc12 (stereo not drawn) [compound 15] 7.44

* * *

- target: MAb 1226S31.3
- protocolSummary: inhibition enzyme immunoassay: inhibition of MAb binding to surface bound R-(-)-oxaprotiline-mucin conjugate
- Design: species or system mouse
- recordedConditions: Mab 1226S31.3; therapeutic drugs and biogenic amines, 1 µM-150 pM, preincubated overnight; read-out: IC50
Reported IC50 by item:

NCCc1c[nH]cn1	> 1000 nM
NCC(O)c1ccc(O)c(O)c1 [L-Norepinephrin]	> 1000 nM
CNC[C@H](O)CC12CCC(c3ccccc31)c1ccccc12	6.7 nM

Here is another molecule to look at.
What does the record list as IC50 for CNCC(O)c1ccc(O)c(O)c1 (stereo not shown) [Epinephrin] ? > 1000 nM

* * *

- Tested on: MAb 1228P63.1
- protocolSummary: inhibition enzyme immunoassay: inhibition of MAb binding to surface bound R-(-)-oxaprotiline-mucin conjugate
- Parameters: species or system mouse
observable: rel. affinity
Just the number.

In the examples that follow, each entry is paired with its recorded rel. affinity.
CN1COC(CC23CCC(c4ccccc42)c2ccccc23)C1 (centres unmarked)	1.6
CNCC(O)CC12CCC(c3ccccc31)c1ccccc12 (racemic)	2.3
NCC(O)CC12CCC(c3ccccc31)c1ccccc12 (centres unmarked)	2.2
CNC[C@H](CC12CCC(c3ccccc31)c1ccccc12)O[C@@H]1O[C@H](C(=O)O)[C@@H](O)[C@H](O)[C@H]1O	562.7
CNCC(CC12CCC(c3ccccc31)c1ccccc12)OC(C)=O (centres unmarked)	4.5
CN(C)CC(O)CC12CCC(c3ccccc31)c1ccc(Cl)cc12 (centres unmarked)	16.7
CNC[C@@H](O)CC12CCC(c3ccccc31)c1ccccc12	6.5
c1ccc2c(c1)C1CCC2(CC2CNCCO2)c2ccccc21 (centres unmarked)	3.1

What does the record list as rel. affinity for CNC[C@@H](CC12CCC(c3ccccc31)c1ccccc12)O[C@@H]1O[C@H](C(=O)O)[C@@H](O)[C@H](O)[C@H]1O ? 68.0

* * *

- target: MAb 1228P63.1
- protocolSummary: inhibition enzyme immunoassay: inhibition of MAb binding to surface bound R-(-)-oxaprotiline-mucin conjugate
- recordedConditions: MAb 1228P63.1; read-out: IC₅₀
observable: pIC50
As a rule, pIC50 stands for the negative log10 of the concentration, concentration in M.

CNCC(CC12CCC(c3ccccc31)c1ccccc12)OC(C)=O (stereo not shown)	8.47
CNC[C@H](CC12CCC(c3ccccc31)c1ccccc12)O[C@@H]1O[C@H](C(=O)O)[C@@H](O)[C@H](O)[C@H]1O	6.37
CNCC(O)CC12CCC(c3ccccc31)c1ccccc12 (racemic)	8.77

Here is another compound to look at.
What does the record list as pIC50 for CNC[C@@H](CC12CCC(c3ccccc31)c1ccccc12)O[C@@H]1O[C@H](C(=O)O)[C@@H](O)[C@H](O)[C@H]1O ? 7.29
